test system: HT-29; test: Propidium iodide anti-proliferative assay; format: cell-based; conditions: Homo sapiens, 48 h incubation, read-out: IC50 ± SEM HT-29
Below, each of the compounds is paired with its reported log10(IC50) value.
Short version: log10 scale, IC50, µM.

Examples with their reported log10(IC50) follow.
INSERT INTO results (compound, test_value) VALUES
  ('COc1ccc(/C=C/C(=O)c2ccc(NC(=O)CSc3nnc(-c4ccc5[nH]c(-c6ccccc6)nc5c4)o3)cc2)cc1OC', 1.05),
  ('COc1cc(/C=C/C(=O)c2ccc(NC(=O)CSc3nnc(-c4ccc5[nH]c(-c6ccccc6)nc5c4)o3)cc2)cc(OC)c1OC', 0.29),
  ('COc1cccc2c1C(=O)c1c(O)c3c(c(O)c1C2=O)C[C@@](O)(C(=O)CO)C[C@@H]3O[C@H]1C[C@H](N)[C@H](O)[C@H](C)O1 [Doxorubicin, reference compound]', 0.00),
  ('COc1cc(-c2nc3cc(-c4nnc(SCC(=O)Nc5ccc(C(=O)/C=C/c6ccccc6)cc5)o4)ccc3[nH]2)cc(OC)c1OC', 0.43),
  ('COc1ccc(/C=C/C(=O)c2ccc(NC(=O)CSc3nnc(-c4ccc5[nH]c(-c6cc(OC)c(OC)c(OC)c6)nc5c4)o3)cc2)cc1OC', 1.10);

Next item in the queue.
Query string: # lookup: log10(IC50) of COc1ccc(/C=C/C(=O)c2ccc(NC(=O)CSc3nnc(-c4ccc5[nH]c(-c6cc(OC)c(OC)c(OC)c6)nc5c4)o3)cc2)cc1
Result string: 1.05

---

Below, each of the molecules is paired with its reported IC50 value.
system: Panc-1, A-549, MCF-7 and HT-29; assay: Propidium iodide anti-proliferative assay, four cell lines together; assay type: cell-based; settings: Homo sapiens; range over Panc-1, A-549, MCF-7, HT-29; read-out: IC50 range on the four tested cell lines

Query string: # lookup: IC50 of COc1ccc(-c2nc3cc(-c4nnc(SCC(=O)Nc5ccc(C(=O)/C=C/c6ccccc6)cc5)o4)ccc3[nH]2)cc1
Result string: 0.95 to 1.4 µM

Query string: And then COc1ccc(-c2nc3cc(-c4nnc(SCC(=O)Nc5ccc(C(=O)/C=C/c6ccc(Cl)cc6)cc5)o4)ccc3[nH]2)cc1 , what is it?
Result string: 1.1 to 1.65 µM

Query string: And then COc1cccc2c1C(=O)c1c(O)c3c(c(O)c1C2=O)C[C@@](O)(C(=O)CO)C[C@@H]3O[C@H]1C[C@H](N)[C@H](O)[C@H](C)O1 [Doxorubicin, reference compound] , what is it?
Result string: 0.9 to 1.41 µM

---

system: Caspase-8 in MCF-7 breast cancer cells; test: Caspase-8 assay; type: cell-based, human; conditions: MCF-7 breast cancer cells
Below, each of the compounds is paired with its reported Caspase-8 Conc value.
Your answer should be a plain number; it is taken to be in ng/mL.

Examples with their reported Caspase-8 Conc follow.
INSERT INTO results (compound, test_value) VALUES
  ('COc1cccc2c1C(=O)c1c(O)c3c(c(O)c1C2=O)C[C@@](O)(C(=O)CO)C[C@@H]3O[C@H]1C[C@H](N)[C@H](O)[C@H](C)O1 [Doxorubicin, reference compound]', 1.750),
  ('COc1ccc(/C=C/C(=O)c2ccc(NC(=O)CSc3nnc(-c4ccc5[nH]c(-c6ccc(OC)cc6)nc5c4)o3)cc2)cc1', 1.350),
  ('COc1ccc(-c2nc3cc(-c4nnc(SCC(=O)Nc5ccc(C(=O)/C=C/c6ccccc6)cc5)o4)ccc3[nH]2)cc1', 1.680);

Next item in the queue.
Query string: # lookup: Caspase-8 Conc of COc1ccc(-c2nc3cc(-c4nnc(SCC(=O)Nc5ccc(C(=O)/C=C/c6ccc(Cl)cc6)cc5)o4)ccc3[nH]2)cc1
Result string: 1.570
